# Tested on: ATP;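 further: ATP exposure 15 min at 22 °C before imaging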
# method: switch fluorescence ratio, 500 uM ATP over buffer (Cy3 cluster intensity, sum of 5 cycles each) (fold (ratio)); higher = stronger signal-on switching upon ATP binding; sequences stand for … in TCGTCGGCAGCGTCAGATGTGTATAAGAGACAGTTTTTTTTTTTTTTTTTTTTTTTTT…TC
# test.conditions: aptamer strand: ATP DNA aptamer (quencher-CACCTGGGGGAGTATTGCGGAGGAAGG + anchor), 100 nM annealed; ATP concentration: 500 uM
sequences and their reported switch fluorescence ratio
Answer as a number with no unit attached.

residue.codes	recorded.value
TTTTGCGTCT	1.06
TGGGTCTAGT	0.998
TCATTGTAAC	1.06
GGGGATGCAG	0.985

Record summary for TCGATGGCGC : reported switch fluorescence ratio = 1.02

Record summary for TAGCCCGTGG : reported switch fluorescence ratio = 1.02

Record summary for GGTAGTTGCC : reported switch fluorescence ratio = 1.02

* * *

sequences and their reported switch fluorescence ratio
# Tested on: ATP;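 further: ATP exposure 15 min at 22 °C before imaging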
# method: switch fluorescence ratio, 500 uM ATP over buffer (Cy3 cluster intensity, sum of 5 cycles each) (fold (ratio)); higher = stronger signal-on switching upon ATP binding; sequences stand for … in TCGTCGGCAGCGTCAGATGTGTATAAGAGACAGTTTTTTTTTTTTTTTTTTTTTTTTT…TC
# test.conditions: aptamer strand: ATP DNA aptamer (quencher-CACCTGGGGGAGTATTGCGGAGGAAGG + anchor), 100 nM annealed; ATP concentration: 500 uM
Answer as a number with no unit attached.

Worked set:
residue.codes	test.target	switch fluorescence ratio
TTAAAATGCT	ATP	0.978
GGTACTTGGA	ATP	1.04

// assay ATP, entry AATGTTTTTT , switch fluorescence ratio value = 1

// assay ATP, entry TAAATTTTAT , switch fluorescence ratio value = 1.01

// assay ATP, entry TACGTTGGGG , switch fluorescence ratio value = 1

// assay ATP, entry CAGCCGGATG , switch fluorescence ratio value = 1.02

// assay ATP, entry CTTTTAGAAC , switch fluorescence ratio value = 0.986

* * *

sequences and their reported switch fluorescence ratio
# Tested on: ATP;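 further: ATP exposure 15 min at 22 °C before imaging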
# method: switch fluorescence ratio, 500 uM ATP over buffer (Cy3 cluster intensity, sum of 5 cycles each) (fold (ratio)); higher = stronger signal-on switching upon ATP binding; sequences stand for … in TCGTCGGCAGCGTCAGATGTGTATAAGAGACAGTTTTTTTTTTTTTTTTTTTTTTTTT…TC
# test.conditions: aptamer strand: ATP DNA aptamer (quencher-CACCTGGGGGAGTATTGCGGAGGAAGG + anchor), 100 nM annealed; ATP concentration: 500 uM
Answer as a number with no unit attached.

residue.codes	recorded.value
ATATTTATTG	0.998
AATCGGTTGT	0.981
GCATAAAACT	1.04
CCTGTGGCAC	1.21

Record summary for CGAATAGTTG : reported switch fluorescence ratio = 1.01

Record summary for ACATTGAACG : reported switch fluorescence ratio = 1.07

Record summary for TCTGCTTGGG : reported switch fluorescence ratio = 1.09

Record summary for AGACTCACTG : reported switch fluorescence ratio = 1.09

Record summary for TTTGAAAGTT : reported switch fluorescence ratio = 1.01

* * *

# System: ATP;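 further: ATP exposure 15 min at 22 °C before imaging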
# method: switch fluorescence ratio, 500 uM ATP over buffer (Cy3 cluster intensity, sum of 5 cycles each) (fold (ratio)); higher = stronger signal-on switching upon ATP binding; sequences stand for … in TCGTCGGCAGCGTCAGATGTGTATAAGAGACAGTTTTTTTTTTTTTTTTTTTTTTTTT…TC
# test.conditions: aptamer strand: ATP DNA aptamer (quencher-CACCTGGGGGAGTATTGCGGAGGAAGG + anchor), 100 nM annealed; ATP concentration: 500 uM
sequences and their reported switch fluorescence ratio
Answer as a number with no unit attached.

Worked set:
residue.codes	recorded.value
AAGTGGTGTC	0.99
AATCAGGCCT	1.05
TGTGTAAGAC	1.16
AACATATCTT	0.996

Record summary for GCCAGGGTGG : reported switch fluorescence ratio = 1.01

Record summary for AAGAAGTCCT : reported switch fluorescence ratio = 0.983

Sourced from the supplement of paper PMC10126150
